Values compiled from patent US20210388087A1.

# tgt: T1, biotin-labeled human CD137 fused to human IgG1 Fc fragment (human, biotin-labeled)
# T1 construct: also called human CD137-Fc; biotin-human CD137-Fc; not shown: human IgG1 Fc fragment
# assay_text: competitive ELISA on biotin-human CD137-Fc; free Fc 62.5 pmol (control)
Kindly supply the reported ELISA signal values for the records listed here.
// response body must contain only the number

ELISA signal reported for this binder dBBDu193/L127 (antibody, V domains shown, IgG format; constant regions not specified; also called dBBDu_193 dBBDu.L127) VH: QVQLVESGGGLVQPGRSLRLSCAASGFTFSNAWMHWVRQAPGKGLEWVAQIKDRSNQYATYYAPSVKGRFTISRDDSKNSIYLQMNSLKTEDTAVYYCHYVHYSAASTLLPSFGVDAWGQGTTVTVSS VL: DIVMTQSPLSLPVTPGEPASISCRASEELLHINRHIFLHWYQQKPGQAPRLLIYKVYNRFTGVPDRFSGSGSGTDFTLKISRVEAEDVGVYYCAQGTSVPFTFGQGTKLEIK : 6080

ELISA signal reported for this binder dBBDu186/L108 (antibody, V domains shown, IgG format; constant regions not specified) VH: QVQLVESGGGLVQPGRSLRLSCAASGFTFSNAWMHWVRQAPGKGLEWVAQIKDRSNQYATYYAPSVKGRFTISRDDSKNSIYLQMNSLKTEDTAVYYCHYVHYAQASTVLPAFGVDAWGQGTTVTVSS VL: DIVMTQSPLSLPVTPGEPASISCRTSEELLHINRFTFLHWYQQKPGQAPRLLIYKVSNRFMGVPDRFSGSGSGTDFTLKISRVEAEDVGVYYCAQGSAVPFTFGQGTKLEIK : 83600

ELISA signal reported for this binder dBBDu186/L098 (antibody, V domains shown, IgG format; constant regions not specified) VH: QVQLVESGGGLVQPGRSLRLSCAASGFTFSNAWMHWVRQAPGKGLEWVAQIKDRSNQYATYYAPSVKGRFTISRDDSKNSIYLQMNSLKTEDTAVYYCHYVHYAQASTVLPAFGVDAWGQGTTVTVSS VL: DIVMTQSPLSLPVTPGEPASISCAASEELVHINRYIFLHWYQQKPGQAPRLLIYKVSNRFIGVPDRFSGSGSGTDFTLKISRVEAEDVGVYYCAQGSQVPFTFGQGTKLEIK : 115000
